- Test system: E21 (patient-derived glioblastoma stem cells of mesenchymal subtype)
- test protocol: surviving fraction (nuclei count normalised to DMSO); higher = more cells surviving (less toxic)
- condition parameters: 1000 nM; exposure time: 72 h
Counter-ions that a name gives are not always drawn.
measured quantity: surviving fraction
Write the number on its own, no unit after it.

Record excerpt, results attached:
[
  {
    "compound": "COc1cc([C@@H]2c3cc4c(cc3[C@@H](O[C@@H]3O[C@@H]5CO[C@@H](c6cccs6)O[C@H]5[C@H](O)[C@H]3O)[C@H]3COC(=O)[C@H]23)OCO4)cc(OC)c1O [Teniposide]",
    "surviving fraction": 0.145
  },
  {
    "compound": "CC(C)NCC(O)c1ccc(O)c(O)c1 (centres undefined) [Isoproterenol hydrochloride]",
    "surviving fraction": 1.03
  },
  {
    "compound": "CC(C)C[C@H]1C(=O)N2CCC[C@H]2[C@]2(O)O[C@](NC(=O)[C@@H]3C=C4c5cccc6[nH]c(Br)c(c56)C[C@H]4N(C)C3)(C(C)C)C(=O)N12 [Bromocryptine mesylate]",
    "surviving fraction": 0.969
  },
  {
    "compound": "COc1ccc([C@@H]2CC(=O)c3c(O)cc(O[C@@H]4O[C@H](CO[C@@H]5O[C@@H](C)[C@H](O)[C@@H](O)[C@H]5O)[C@@H](O)[C@H](O)[C@H]4O)cc3O2)cc1O",
    "surviving fraction": 1.02
  },
  {
    "compound": "COc1c(N2CCNC(C)C2)c(F)cc2c(=O)c(C(=O)O)cn(C3CC3)c12 (centres undefined)",
    "surviving fraction": 0.814
  },
  {
    "compound": "NCc1ccccc1CC(=O)N[C@@H]1C(=O)N2C(C(=O)O)=C(CSc3nnnn3CC(=O)O)CS[C@H]12 [Ceforanide]",
    "surviving fraction": 0.94
  },
  {
    "compound": "C[C@@H](O[C@H]1OCCN(Cc2n[nH]c(=O)[nH]2)[C@H]1c1ccc(F)cc1)c1cc(C(F)(F)F)cc(C(F)(F)F)c1 [Aprepitant]",
    "surviving fraction": 0.955
  },
  {
    "compound": "Oc1c(Cl)cc(Cl)c(Cl)c1Cc1c(O)c(Cl)cc(Cl)c1Cl",
    "surviving fraction": 0.762
  }
]

Test item NCCNc1ccc(NCCN)c2c1C(=O)c1ccncc1C2=O [Pixantrone dimaleate] ; E21; reported surviving fraction was 0.509

// compound O=C(Oc1cccc2cccnc12)c1ccccc1 , assay E21, surviving fraction value: 1.04

Cc1ncc(CO)c(CO)c1O [Pyridoxine hydrochloride] on E21 gives surviving fraction = 1.06

Record for Nc1ccn([C@@H]2O[C@H](CO)[C@@H](O)C2(F)F)c(=O)n1 [Gemcitabine HCl] under target or system E21: surviving fraction reported as 0.129

For the compound CC(NCCC(c1ccccc1)c1ccccc1)c1ccccc1 (centres undefined) [Fendiline hydrochloride] , the measured surviving fraction on E21 was 0.962

Record CC(C)C(=O)OCC(=O)[C@@]12O[C@H](C3CCCCC3)O[C@@H]1C[C@H]1[C@@H]3CCC4=CC(=O)C=C[C@]4(C)[C@H]3[C@@H](O)C[C@@]12C [Ciclesonide] has E21 surviving fraction equal to 1.24

====

- Test system: E57 (patient-derived glioblastoma stem cells of mesenchymal subtype)
- test protocol: phenotypic distance (Euclidean, principal components) from DMSO controls (arbitrary units); higher = stronger morphological change
- condition parameters: 37 nM; exposure time: 72 h
Counter-ions that a name gives are not always drawn.
measured quantity: phenotypic distance

[
  {
    "compound": "CC[C@H]1CN2CCc3cc(OC)c(OC)cc3[C@@H]2C[C@@H]1C[C@H]1NCCc2cc(OC)c(OC)cc21 [Emetine dihydrochloride hydrate]",
    "result": 0.848
  }
]

Entry Nc1nc2n[nH]nc2c(=O)[nH]1 under E57 had phenotypic distance of 1.2

Record CCN(CC)Cc1ccc(C(=O)N(CCc2ccccc2OC)[C@@H]2CCNC2)cc1 ; system E57; phenotypic distance = 0.517

// compound CC[C@@]1(O)C(=O)OCc2c1cc1n(c2=O)Cc2cc3cc(O)ccc3nc2-1 [Hydroxy Camptothecine] , assay E57, phenotypic distance value: 6.63

Measured on E57, COc1ccc([C@@H]2CC(=O)c3c(O)cc(O[C@@H]4O[C@H](CO[C@@H]5O[C@@H](C)[C@H](O)[C@@H](O)[C@H]5O)[C@@H](O)[C@H](O)[C@H]4O)cc3O2)cc1O has a documented phenotypic distance of 0.539

Short answer on E57 for CN[C@@H]1[C@@H](O)[C@@H](O[C@@H]2[C@@H](O)[C@H](O[C@H]3OC(CN)=CC[C@H]3N)[C@@H](N)C[C@H]2N)OC[C@]1(C)O [Sisomicin sulfate] , phenotypic distance: 0.794

Considering CC(C)NCC(O)COc1cccc2ccccc12 (configuration not stated) [Propranolol hydrochloride] , its phenotypic distance with E57 was recorded as 0.554

====

- Tested on: FT3469 (normal neural stem cell line)
- test protocol: phenotypic distance (Euclidean, principal components) from DMSO controls (arbitrary units); higher = stronger morphological change
- condition parameters: 37 nM; exposure time: 72 h
Structures can show the parent of a compound that is named as a salt.
Let's look at some molecules and their measured phenotypic distance.
API doc: respond with a numeric literal and nothing else, no unit.

[
  {
    "molecule": "C[C@@H]1CN([C@H]2CC[C@](C#N)(c3ccc(F)cc3)CC2)CC[C@]1(C(=O)O)c1ccccc1 [Levocabastine hydrochloride]",
    "phenotypic distance": 0.998
  }
]

Lookup result for Cc1c(-c2ccc(-c3ccccc3F)cc2)nc2ccc(F)cc2c1C(=O)O [Brequinar sodium salt hydrate] ; measured phenotypic distance: 0.863

====

- Test system: FT3469
- test protocol: surviving fraction (nuclei count normalised to DMSO); higher = more cells surviving (less toxic)
- condition parameters: 3000 nM; exposure time: 72 h
Structures can show the parent of a compound that is named as a salt.
Recorded surviving fraction for the following compounds

[
  {
    "compound": "NC(=O)c1cccc2cn(-c3ccc([C@@H]4CCCNC4)cc3)nc12 [Niraparib]",
    "surviving fraction": 0.743
  },
  {
    "compound": "Cc1cc(C(C)(C)CC(C)(C)C)ccc1OCCOCC[N+](C)(C)Cc1ccccc1 [Methyl benzethonium chloride]",
    "surviving fraction": 0.135
  },
  {
    "compound": "COc1cccc2c(NCc3ccccc3)nc(-n3c(N)nc4ccccc43)nc12 [ML240]",
    "surviving fraction": 0.00884
  },
  {
    "compound": "C[C@H]1O[C@@H](O[C@H]2[C@@H](O)C[C@H](O[C@H]3[C@@H](O)C[C@H](O[C@H]4CC[C@@]5(C)[C@H](CC[C@@H]6[C@@H]5C[C@@H](O)[C@]5(C)[C@@H](C7=CC(=O)OC7)CC[C@]65O)C4)O[C@@H]3C)O[C@@H]2C)C[C@H](O)[C@@H]1O [Digoxin]",
    "surviving fraction": 0.566
  },
  {
    "compound": "CNCCCC12CCC(c3ccccc31)c1ccccc12 [Maprotiline hydrochloride]",
    "surviving fraction": 0.869
  }
]

Please fill in: surviving fraction reported for CC1=C(/C=C/C(C)=C/C=C/C(C)=C/C(=O)Nc2ccc(O)cc2)C(C)(C)CCC1 [Retinoic acid p-hydroxyanilide] = 0.0056

Entry CNc1ccc2oc(C[C@H]3O[C@@]4(CC[C@H]3C)O[C@H]([C@H](C)C(=O)c3ccc[nH]3)[C@H](C)C[C@H]4C)nc2c1C(=O)O [Calcimycin] — recorded surviving fraction = 0.118

====

- System: E57
- test protocol: surviving fraction (nuclei count normalised to DMSO); higher = more cells surviving (less toxic)
- condition parameters: 111.1 nM; exposure time: 72 h
surviving fraction values for the molecules below.
API note: the answer field is a bare number with no unit suffix.

The molecule listed as CC[C@@]1(O)C(=O)OCc2c1cc1n(c2=O)Cc2cc3c(CN(C)C)c(O)ccc3nc2-1 [Topotecan] has a reported surviving fraction of 0.164

For reference, reported surviving fraction for CC(C)C(=O)OCC(=O)[C@@]12O[C@H](C3CCCCC3)O[C@@H]1C[C@H]1[C@@H]3CCC4=CC(=O)C=C[C@]4(C)[C@H]3[C@@H](O)C[C@@]12C [Ciclesonide] stands at 1.32

response.value for C[C@@H](O[C@H]1OCCN(Cc2n[nH]c(=O)[nH]2)[C@H]1c1ccc(F)cc1)c1cc(C(F)(F)F)cc(C(F)(F)F)c1 [Aprepitant] (field: surviving fraction) = 0.945

Short answer for O=c1[nH]c(=O)n([C@H]2C[C@H](O)[C@@H](CO)O2)cc1I [Idoxuridine] : surviving fraction was 0.992

The molecule C[C@H](Cc1cc2c(c(C(N)=O)c1)N(CCCO)CC2)NCCOc1ccccc1OCC(F)(F)F [Silodosin] showed surviving fraction equal to 0.843

surviving fraction for C[C@@]12C(=O)OC(=O)[C@]1(C)[C@H]1CC[C@@H]2O1 [Cantharidin] is 0.882

All figures here come from the supplement of paper PMC13207355.
